Target: mTORC2 (Homo sapiens, UniProt P42345+P62942)
Construct: endogenous in cells; host or cells: PC3 cells (human prostate adenocarcinoma)
Assay: Inhibition assay for mTORC2: phosphorylation of pAkt at Ser473, AlphaLISA SureFire in PC3 cells
Format: cell-based
Settings: PC3 cells, 24 hours treatment, analogs substituted at C40 and C16 (C16 diastereomer mixtures not isolated), read-out: pIC50 mTORC2 (converted)
Consider the following molecules and their measured IC50 readings.

Reference set (2 entries):
Annotate the molecule CO[C@@H]1C[C@H](C[C@@H](C)[C@@H]2CC(=O)[C@H](C)/C=C(\C)[C@@H](O)[C@@H](OC)C(=O)[C@H](C)C[C@H](C)/C=C/C=C/C=C(\C)C(OCCO)C[C@@H]3CC[C@@H](C)[C@@](O)(O3)C(=O)C(=O)N3CCCCC3C(=O)O2)CC[C@H]1OC(=O)N(C)CCO (stereo partly drawn) [Compound 83] with its measured IC50.
1 to 10 µM

Annotate the molecule CO[C@@H]1C[C@H](C[C@@H](C)[C@@H]2CC(=O)[C@H](C)/C=C(\C)[C@@H](O)[C@@H](OC)C(=O)[C@H](C)C[C@H](C)/C=C/C=C/C=C(\C)C(OC3COC3)C[C@@H]3CC[C@@H](C)[C@@](O)(O3)C(=O)C(=O)N3CCCCC3C(=O)O2)CC[C@H]1OC(=O)NCCN1CCOCC1 (stereo partly drawn) [Compound 71] with its measured IC50.
> 10 µM

***
Annotate the molecule COCCCOC1C[C@@H]2CC[C@@H](C)[C@@](O)(O2)C(=O)C(=O)N2CCCCC2C(=O)O[C@H]([C@H](C)C[C@@H]2CC[C@@H](OCCO)[C@H](OC)C2)CC(=O)[C@H](C)/C=C(\C)[C@@H](O)[C@@H](OC)C(=O)[C@H](C)C[C@H](C)/C=C/C=C/C=C/1C (stereo partly drawn) [Compound 31] with its measured IC50.
1 to 10 µM

====

Molecular target: mTORC2 (Homo sapiens, UniProt P42345+P62942)
Construct: endogenous in cells; host or cells: PC3 cells (human prostate adenocarcinoma)
Experiment: Inhibition assay for mTORC2: phosphorylation of pAkt at Ser473, AlphaLISA SureFire in PC3 cells
Type: cell-based
Conditions: PC3 cells, 24 hours treatment, analogs substituted at C40 and C16 (C16 diastereomer mixtures not isolated), read-out: pIC50 mTORC2 (converted)
Consider the following molecules and their measured IC50 readings.

Annotate the molecule CO[C@@H]1C[C@H](C[C@@H](C)[C@@H]2CC(=O)[C@H](C)/C=C(\C)[C@@H](O)[C@@H](OC)C(=O)[C@H](C)C[C@H](C)/C=C/C=C/C=C(\C)C(OCCO)C[C@@H]3CC[C@@H](C)[C@@](O)(O3)C(=O)C(=O)N3CCCCC3C(=O)O2)CC[C@H]1OC(=O)NCCO (stereo partly shown) with its measured IC50.
> 10 µM

***
Annotate the molecule COCCOC1C[C@@H]2CC[C@@H](C)[C@@](O)(O2)C(=O)C(=O)N2CCCCC2C(=O)O[C@H]([C@H](C)C[C@@H]2CC[C@@H](OCCCN3CCCCC3)[C@H](OC)C2)CC(=O)[C@H](C)/C=C(\C)[C@@H](O)[C@@H](OC)C(=O)[C@H](C)C[C@H](C)/C=C/C=C/C=C/1C (stereo partly shown) with its measured IC50.
1 to 10 µM

Annotate the molecule COCCCO[C@@H]1CC[C@@H](C[C@@H](C)[C@@H]2CC(=O)[C@H](C)/C=C(\C)[C@@H](O)[C@@H](OC)C(=O)[C@H](C)C[C@H](C)/C=C/C=C/C=C(\C)C(OCCOCCOC)C[C@@H]3CC[C@@H](C)[C@@](O)(O3)C(=O)C(=O)N3CCCCC3C(=O)O2)C[C@H]1OC (stereo partly shown) with its measured IC50.
> 10 µM

Annotate the molecule COCCOC1C[C@@H]2CC[C@@H](C)[C@@](O)(O2)C(=O)C(=O)N2CCCCC2C(=O)O[C@H]([C@H](C)C[C@@H]2CC[C@@H](OCCOC)[C@H](OC)C2)CC(=O)[C@H](C)/C=C(\C)[C@@H](O)[C@@H](OC)C(=O)[C@H](C)C[C@H](C)/C=C/C=C/C=C/1C (stereo partly shown) with its measured IC50.
> 10 µM

====

Target: mTORC2 (Homo sapiens, UniProt P42345+P62942)
Construct: endogenous in cells; host or cells: PC3 cells (human prostate adenocarcinoma)
Test: Inhibition assay for mTORC2: phosphorylation of pAkt at Ser473, AlphaLISA SureFire in PC3 cells
Assay type: cell-based
Details: PC3 cells, 24 hours treatment, analogs substituted at C40 and C16 (C16 diastereomer mixtures not isolated), read-out: pIC50 mTORC2 (converted)
property_label: IC50

Annotate the compound CO[C@@H]1C[C@H](C[C@@H](C)[C@@H]2CC(=O)[C@H](C)/C=C(\C)[C@@H](O)[C@@H](OC)C(=O)[C@H](C)C[C@H](C)/C=C/C=C/C=C(\C)C(OCCc3ccccc3)C[C@@H]3CC[C@@H](C)[C@@](O)(O3)C(=O)C(=O)N3CCCCC3C(=O)O2)CC[C@H]1OC(=O)N(CCO)CCO (some centres unmarked) with its measured IC50.
< 1 µM

Here is the next item to consider.
Annotate the compound CO[C@@H]1C[C@H](C[C@@H](C)[C@@H]2CC(=O)[C@H](C)/C=C(\C)[C@@H](O)[C@@H](OC)C(=O)[C@H](C)C[C@H](C)/C=C/C=C/C=C(\C)C(OCCO)C[C@@H]3CC[C@@H](C)[C@@](O)(O3)C(=O)C(=O)N3CCCCC3C(=O)O2)CC[C@H]1OCCN1CCOCC1 (some centres unmarked) with its measured IC50.
> 10 µM

====

Target: mTORC1 (Homo sapiens, UniProt P42345+P62942)
Construct: endogenous in cells; host or cells: PC3 cells (human prostate adenocarcinoma)
Experiment: Inhibition assay for mTORC1: phosphorylation of pS6K at Thr389, AlphaLISA SureFire in PC3 cells
Assay type: cell-based
Conditions: PC3 cells, 24 hours treatment, pS6K Thr389; analogs substituted at C40 and C16 (C16 diastereomer mixtures not isolated); read-out: pIC50 mTORC1 (converted)
Procedure: The IC50s of the inhibition of mTORC1 and mTORC2 were determined in vitro by determining the phosphorylation of pS6K at position Thr389 (mTORC1 inhibition) and pAkt at Ser473 (mTORC2 inhibition). In vitro studies were performed with AiphaLISA® technology using PC3 cells (Prostate Adenocarcinoma; Human (Homo sapiens)). The cells were seeded in 96 well plates and were treated for 24 hours with the different compounds. […]
Consider the following compounds and their measured IC50 readings.

Annotate the compound CO[C@@H]1C[C@H](C[C@@H](C)[C@@H]2CC(=O)[C@H](C)/C=C(\C)[C@@H](O)[C@@H](OC)C(=O)[C@H](C)C[C@H](C)/C=C/C=C/C=C(\C)C(OCCc3ccccc3)C[C@@H]3CC[C@@H](C)[C@@](O)(O3)C(=O)C(=O)N3CCCCC3C(=O)O2)CC[C@H]1OC(=O)NCCN(C)C (some centres unmarked) with its measured IC50.
< 0.316 nM

Here is the next item to consider.
Annotate the compound CO[C@@H]1C[C@H](C[C@@H](C)[C@@H]2CC(=O)[C@H](C)/C=C(\C)[C@@H](O)[C@@H](OC)C(=O)[C@H](C)C[C@H](C)/C=C/C=C/C=C(\C)C(OCc3ccccc3)C[C@@H]3CC[C@@H](C)[C@@](O)(O3)C(=O)C(=O)N3CCCCC3C(=O)O2)CC[C@H]1OCCCc1ccccc1 (some centres unmarked) with its measured IC50.
0.316 to 3.16 nM

====

Target: mTORC1 (Homo sapiens, UniProt P42345+P62942)
Construct: endogenous in cells; host or cells: PC3 cells (human prostate adenocarcinoma)
Test: Inhibition assay for mTORC1: phosphorylation of pS6K at Thr389, AlphaLISA SureFire in PC3 cells
Format: cell-based
Details: PC3 cells, 24 hours treatment, pS6K Thr389; analogs substituted at C40 and C16 (C16 diastereomer mixtures not isolated); read-out: pIC50 mTORC1 (converted)
property_label: IC50

Annotate the compound CO[C@@H]1C[C@H](C[C@@H](C)[C@@H]2CC(=O)[C@H](C)/C=C(\C)[C@@H](O)[C@@H](OC)C(=O)[C@H](C)C[C@H](C)/C=C/C=C/C=C(\C)C(OCCO)C[C@@H]3CC[C@@H](C)[C@@](O)(O3)C(=O)C(=O)N3CCCCC3C(=O)O2)CC[C@H]1OC(=O)N(C)CCCN(C)C (some centres unmarked) [Compound 77] with its measured IC50.
0.316 to 3.16 nM

***
Annotate the compound CO[C@@H]1C[C@H](C[C@@H](C)[C@@H]2CC(=O)[C@H](C)/C=C(\C)[C@@H](O)[C@@H](OC)C(=O)[C@H](C)C[C@H](C)/C=C/C=C/C=C(\C)C(OCC(C)(C)O)C[C@@H]3CC[C@@H](C)[C@@](O)(O3)C(=O)C(=O)N3CCCCC3C(=O)O2)CC[C@H]1OCCCO (some centres unmarked) [Compound 98] with its measured IC50.
0.316 to 3.16 nM
